src = the supplement of paper PMC10567573

Can you tell me protein stability index for the items I'm about to list?
B1: SLC25A39 (parent)
chain: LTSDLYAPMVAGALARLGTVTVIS

Variants of: B1
Assay: protein stability index of a GFP-peptide fusion (GPS, HEK-293T) (PSI 1-6); higher = more stable;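 also: lentivirally expressed fusions sorted by FACS into six bins by GFP to DsRed ratio, PSI derived from sequencing read proportions per bin multiplied by bin number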
Conditions: c terminus: a fixed tail appended
One number for each entry.

Examples with their reported protein stability index follow.
>>> experimental_value("S24T")
4.15
>>> experimental_value("A13S")
1.38

Consider the record given below.
Lab note: `L14S` gave protein stability index of 1.69
